assay.system: Ubiquitin carboxyl-terminal hydrolase 10 (Homo sapiens) (UniProt Q14694)
Sequence (Q14694 whole entry, looked up): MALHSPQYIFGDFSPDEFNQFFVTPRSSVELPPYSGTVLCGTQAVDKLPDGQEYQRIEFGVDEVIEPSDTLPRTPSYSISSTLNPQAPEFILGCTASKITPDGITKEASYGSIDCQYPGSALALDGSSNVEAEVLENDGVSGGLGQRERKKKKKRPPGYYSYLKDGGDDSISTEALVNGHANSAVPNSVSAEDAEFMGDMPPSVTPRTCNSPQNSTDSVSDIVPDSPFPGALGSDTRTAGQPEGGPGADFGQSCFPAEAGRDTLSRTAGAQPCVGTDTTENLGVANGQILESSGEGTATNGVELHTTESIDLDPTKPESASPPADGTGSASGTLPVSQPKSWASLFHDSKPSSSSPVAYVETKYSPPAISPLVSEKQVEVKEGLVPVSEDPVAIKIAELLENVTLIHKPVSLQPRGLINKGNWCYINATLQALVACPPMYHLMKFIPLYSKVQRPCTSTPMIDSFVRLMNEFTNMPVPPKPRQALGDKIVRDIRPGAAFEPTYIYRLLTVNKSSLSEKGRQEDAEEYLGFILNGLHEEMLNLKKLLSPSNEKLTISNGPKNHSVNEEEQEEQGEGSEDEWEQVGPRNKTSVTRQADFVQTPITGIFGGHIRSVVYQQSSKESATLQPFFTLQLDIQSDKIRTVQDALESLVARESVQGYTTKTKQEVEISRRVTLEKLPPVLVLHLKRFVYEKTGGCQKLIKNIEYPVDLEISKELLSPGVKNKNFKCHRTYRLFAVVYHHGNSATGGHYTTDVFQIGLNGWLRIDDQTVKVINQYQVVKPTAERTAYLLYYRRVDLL
experiment.notes: ubiquitin-specific protease 10 DUB inhibitors, concentration-effect, biochemical, verification of primary screen actives (AID 1645863);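 note: potency values describe inhibition of USP10 cleavage of a fluorogenic ubiquitin substrate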
experimental.context: USP10 deubiquitinase enzymatic assay
Activity calls are given as the source filed them. The rule behind the calls is not given here.
Permitted responses: active, inactive

Past entries and their recorded results:
O=C1CSC(c2ccc3c(c2)OCO3)c2c(n(C3CCCCCC3)[nH]c2=O)N1 (stereo not given): active
COC(=O)c1ccc(Nc2cc(C)nc3cc(C(F)(F)F)ccc23)cc1: active
O=C1c2c(O)cccc2C2(Oc3cccc4cccc(c34)O2)C2OC12 (stereo not given): active

IN: Test call for this compound, please: "O=C(Nc1cccc2ccccc12)N1CCC(c2nc3c(nnn3Cc3ccc(F)cc3)c(=O)[nH]2)CC1"
OUT: inactive

IN: Test call for this compound, please: "O=C(Cn1c(=O)n(-c2ccc(CC(=O)NC3CCCC3)cc2)c(=O)c2ccccc21)Nc1ccccc1[N+](=O)[O-]"
OUT: active

IN: Test call for this compound, please: "O=C(Nc1c2c(nn1-c1ccc([N+](=O)[O-])cc1)CSC2)c1c(F)cccc1F"
OUT: inactive

IN: Test call for this compound, please: O=C(Nc1ccc2c(c1)CCC2)C1Cc2ccccc2CN1C(=O)c1ccccc1 (stereo not given)
OUT: inactive

IN: Test call for this compound, please: "Cc1nc(-c2noc(-c3cccc(F)c3)n2)cn1CC(=O)Nc1ccccc1"
OUT: active

IN: Test call for this compound, please: "CCc1ccc(OCCn2c(CCNC(=O)C3CCCCC3)nc3ccccc32)cc1"
OUT: inactive

IN: Test call for this compound, please: Cc1ccc(-n2nc(C)c3c2NC(=O)CC3C(=O)c2cc3ccccc3o2)cc1C (stereo not given)
OUT: inactive

IN: Test call for this compound, please: "CC(C)n1cc(CN2CCC(C(=O)Nc3cccc(-c4cccc(Cl)c4)c3)CC2)cn1"
OUT: inactive

IN: Test call for this compound, please: COc1ccccc1N(CC(=O)N1c2ccccc2CC1C)S(=O)(=O)c1ccc(F)cc1 (stereo not given)
OUT: inactive

IN: Test call for this compound, please: CS(=O)(=O)NC1CCCN(C(=O)Nc2cccc3ccccc23)C1 (stereo not given)
OUT: inactive

IN: Test call for this compound, please: "Cc1cccc(-n2ccnc(SCC(=O)Nc3ccc(Cl)cc3F)c2=O)c1"
OUT: active

IN: Test call for this compound, please: "c1ccc2sc(-c3csc(-c4ccc5c(c4)OCCO5)n3)nc2c1"
OUT: inactive

###

assay.system: UniProtKB Q14694
experiment.notes: ubiquitin-specific protease 10 DUB inhibitors, concentration-effect, biochemical, verification of primary screen actives (AID 1645863)
experimental.context: USP10 deubiquitinase enzymatic assay
Active and inactive are the calls of the source. The rule behind the calls is not given here.
Permitted responses: True for active, False for inactive

Past entries and their recorded results:
COc1ccc(C(=O)NC(Cc2ccccc2)c2nc3ccccc3[nH]2)c(OC)c1 (centres undefined): False
O=C(NCc1ccc2c(c1)OCO2)c1cn(-c2cccc(Cl)c2)nn1: True
O=C(O)c1nccnc1C(=O)N1CCc2ccccc2C1: False
CC1=C(Cn2c3cccc(=O)c-3nc3ccccc32)CCC(C)(C)C1: True
CO/C=C/C(=O)c1cc2cnc3c(=N)cc(NC(C)=O)c([nH]1)c23: False
CC1(C(=O)NCc2ccc(F)cc2)Cn2nc(-c3ccco3)cc2C(=O)N1c1ccc2c(c1)OCCO2 (centres undefined): False
CC1Oc2cc3c(-c4c(O)cc(O)c5c(O)c6c(cc45)OC(C)C(C)C6=O)c(O)cc(O)c3c(O)c2C(=O)C1C (centres undefined): False
O=C(CCCCCn1c(=O)c2sccc2n(CC(=O)c2ccc(Cl)c(Cl)c2)c1=O)NCc1ccc2c(c1)OCO2: True

IN: Test call for this compound, please: CC(C)=CCC[C@H](C(=O)O)[C@@H]1CC[C@]2(C)C3=C(CC[C@@]12C)[C@@]1(C)CCC(=O)C(C)(C)C1CC3 (some centres undefined)
OUT: True

IN: Test call for this compound, please: "CCOC(=O)c1cc2c(ccn2C)n1CC(=O)NC1CC1"
OUT: False

###

assay.system: Ubiquitin carboxyl-terminal hydrolase 10 (Homo sapiens) (UniProt Q14694)
experiment.notes: ubiquitin-specific protease 10 DUB inhibitors, concentration-effect, biochemical, verification of primary screen actives (AID 1645863)
experimental.context: USP10 deubiquitinase enzymatic assay
Calls of active or inactive are those of the source. How the calls were made is not given here.
Each record here notes measured IC50.

Worked examples follow.
COc1cccc(C2c3[nH]c4ccccc4c3C[C@@H]3C(=O)N(CC(O)c4ccccc4)CC(=O)N23)c1 (some centres undefined): > 40 µM (inactive)
O=C(NC1CCCC1)c1ccc(Cn2c(=O)c3ccccc3n(Cc3cc(=O)n4ccccc4n3)c2=O)cc1: > 40 µM (inactive)
Cc1ccc(NC(=O)Cn2cc(C(=O)c3ccccc3)c(=O)c3cc(C)ccc32)cc1: 23.9 µM
Cc1cccc(N2C(=O)/C(=C\c3ccc4c(c3)OCCO4)c3ccccc3C2=O)c1: > 40 µM (inactive)
COc1ccc(S(=O)(=O)NC2CC(=O)N(c3ccc(Cl)cc3)C2)cc1 (centres undefined): > 40 µM (inactive)

Observed IC50, Ubiquitin carboxyl-terminal hydrolase 10 (Homo sapiens) (UniProt Q14694), "Cc1ccc(-n2c(=O)[nH]c3c(C(N)=O)nc(-c4ccc(OCc5ccccc5)cc4)nc32)cc1" : > 40 µM (inactive)

Observed IC50, Ubiquitin carboxyl-terminal hydrolase 10 (Homo sapiens) (UniProt Q14694), "O=C(Nc1ccc(Br)cc1F)c1ccc(S(=O)(=O)N2CCCC2)cc1" : > 40 µM (inactive)

Observed IC50, Ubiquitin carboxyl-terminal hydrolase 10 (Homo sapiens) (UniProt Q14694), "C[C@@H]1OC2=C(C(=O)c3cccc(O)c3C2=O)[C@H](O)[C@@H]1O" : 6.1 µM

Observed IC50, Ubiquitin carboxyl-terminal hydrolase 10 (Homo sapiens) (UniProt Q14694), "CC1=CC(=O)C(C2=C(O)C(=O)C(C)=CC2=O)=C(O)C1=O" : 12 µM

###

assay.system: UniProt Q14694
experiment.notes: ubiquitin-specific protease 10 DUB inhibitors, concentration-effect, biochemical, verification of primary screen actives (AID 1645863);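 note: potency values describe inhibition of USP10 cleavage of a fluorogenic ubiquitin substrate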
experimental.context: USP10 deubiquitinase enzymatic assay
Activity calls are given as the source filed them. How the calls were made is not given here.
Permitted responses: y = active, n = inactive

O=C(Nc1ccc2c(c1)OCCO2)C1CCC(Cn2cnc3ccccc3c2=O)CC1 (centres undefined): n

IN: Test call for this molecule, please: "Cc1nc2nc(C(c3ccccc3)c3ccccc3)[nH]n2c(=O)c1Cc1ccccc1"
OUT: n

IN: Test call for this molecule, please: COc1cc(Cl)c(NC(=O)C2Cc3ccccc3N2C(=O)c2ccccc2)c(OC)c1 (centres undefined)
OUT: y

IN: Test call for this molecule, please: "COC(=O)c1ccc(C(=O)Nc2cc3ccccc3cc2NC(=O)c2ccc(C(=O)OC)cc2)cc1"
OUT: n

###

assay.system: Ubiquitin carboxyl-terminal hydrolase 10 (Homo sapiens)
experiment.notes: ubiquitin-specific protease 10 DUB inhibitors, concentration-effect, biochemical, verification of primary screen actives (AID 1645863);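 note: potency values describe inhibition of USP10 cleavage of a fluorogenic ubiquitin substrate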
experimental.context: USP10 deubiquitinase enzymatic assay
Activity calls are given as the source filed them. No rule for the calls is given here.
Permitted responses: true for active, false for inactive

Past entries and their recorded results:
COc1ccc(-c2noc(C3(c4ccc(F)cc4)CCOCC3)n2)cc1: false
CCCCCCCCCC(CCCCCCCCCC(=O)O)O[C@H]1O[C@@H](COC(C)=O)[C@H](O)[C@@H](O)[C@H]1OC(=O)CC(=O)O (some centres undefined): true
O=C(NCc1ccc(Br)cc1)c1cc(-c2cccnc2)n[nH]1: false

IN: Test call for this compound, please: CCOc1ccc(C2SCC(=O)Nc3c2c(=O)[nH]n3C2CCCCC2)cc1 (centres undefined)
OUT: false

IN: Test call for this compound, please: "CC(=O)NS(=O)(=O)c1ccc(NC(=O)/C=C/c2cn(-c3ccccc3)nc2-c2ccccc2)cc1"
OUT: true

IN: Test call for this compound, please: Cc1cccc(COc2ccc(C3SCC(=O)Nc4n[nH]c(C)c43)cc2)c1 (centres undefined)
OUT: false

IN: Test call for this compound, please: "Cc1cc(C)c(O)c(-c2cc(C(=O)Nc3ccccc3Cl)[nH]n2)c1"
OUT: false

IN: Test call for this compound, please: "CC(C)=CCC/C(C)=C/COc1ccc(/C=C2\C(=O)N(O)[C@@H](C)C(=O)N2O)cc1"
OUT: true

IN: Test call for this compound, please: "CCC(=O)Nc1nc2cc(NC(=O)Nc3cc(C)cc(C)c3)ccc2s1"
OUT: false

###

assay.system: Ubiquitin carboxyl-terminal hydrolase 10 (Homo sapiens) (UniProt Q14694)
experiment.notes: ubiquitin-specific protease 10 DUB inhibitors, concentration-effect, biochemical, verification of primary screen actives (AID 1645863);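 note: potency values describe inhibition of USP10 cleavage of a fluorogenic ubiquitin substrate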
experimental.context: USP10 deubiquitinase enzymatic assay
Active and inactive are the calls of the source. No rule for the calls is given here.
Permitted responses: label 1 = active, label 0 = inactive

Past entries and their recorded results:
COc1ccc(Cn2c(=O)[nH]c3cc(C(=O)NCCCN4CCN(c5cccc(Cl)c5)CC4)ccc3c2=O)cc1: label 0
O=C(c1cnc2[nH][nH]c(=O)c2c1)c1cc(Cl)cc(Cl)c1O: label 1
CCCc1ccc(C(=O)[C@@H]2[C@@H](C(=O)c3cccs3)N3c4ccc(C)cc4C(C)=C[C@@H]3[C@@]23C(=O)Nc2ccccc23)cc1: label 0
CCCn1cc(C(=O)N2CCC3(CC2)CC2(CO3)Nc3ccccc3-n3cccc32)c(C)n1 (configuration not stated): label 0
O=C(c1ccc2occc2c1)N1CCC(S(=O)(=O)c2ccc(-c3ccco3)cc2)CC1: label 0
COc1ccc(Cl)cc1NC(=O)CSc1ncnc2nc[nH]c12: label 1

IN: Test call for this compound, please: "Cc1ccccc1-c1nc(-c2cn(CC(=O)Nc3ccccc3)cn2)no1"
OUT: label 0
